Data origin: paper PMC6151740

Experiment: Plasma pharmacokinetic study in rats after oral and intravenous administration of SZ–A or purified DNJ
Format: in vivo, rat
Conditions: Sprague-Dawley, iv; rat plasma, purified DNJ 1.5 mg/kg i.v., n = 5
ENDPOINT: Cmax (ng/mL)
# output: bare number, implied unit ng/mL

IN: What value of measured Cmax is listed for OC[C@H]1NC[C@H](O)[C@@H](O)[C@@H]1O [DNJ, 1-deoxynojirimycin] ?
OUT: 4520

----------
Here the recorded Tmax is given for each entry.
Assay: Plasma pharmacokinetic study in rats after oral and intravenous administration of SZ–A or purified DNJ
Type: in vivo, rat
Conditions: Sprague-Dawley, po; rat plasma, SZ–A 40 mg/kg p.o., n = 5
# output: bare number, implied unit min

Reference set (2 entries):
OC[C@H]1NCC[C@@H](O)[C@@H]1O [FGM, fagomine]	40.2
OC[C@H]1NC[C@@H](O)[C@@H]1O [DAB, 1,4-dideoxy-1,4-imino-D-arabinitol]	40.2

Now let's try a different one.
IN: What value of measured Tmax is listed for OC[C@H]1NC[C@H](O)[C@@H](O)[C@@H]1O [DNJ, 1-deoxynojirimycin] ?
OUT: 40.2

----------
Assay: Plasma pharmacokinetic study in rats after oral and intravenous administration of SZ–A or purified DNJ
Type: in vivo, rat
Details: Sprague-Dawley, po; rat plasma, SZ–A 200 mg/kg p.o., n = 5
Here the recorded Tmax is given for each entry.
# output: bare number, implied unit min

OC[C@H]1NC[C@H](O)[C@@H](O)[C@@H]1O [DNJ, 1-deoxynojirimycin]	40.2
OC[C@H]1NC[C@@H](O)[C@@H]1O [DAB, 1,4-dideoxy-1,4-imino-D-arabinitol]	34.2

Now let's try a different one.
IN: What value of measured Tmax is listed for OC[C@H]1NCC[C@@H](O)[C@@H]1O [FGM, fagomine] ?
OUT: 34.2
